Each record here notes measured % Inhibition of SMAD7 mRNA.
Tested on: human SMAD7 mRNA
Assay Protocol: Antisense inhibition of human SMAD7 mRNA expression in Hep3B cells by 5-10-5 MOE gapmers, single concentration, electroporation, RT-PCR (Example 1, Study 1 and 2)
Assay type: cell-based
Details: electroporation with 15,000 nM antisense oligonucleotide (Study 2), 5-10-5 MOE gapmers targeting SEQ ID NO: 1 and 2
Strand notation (5' to 3'): a small letter for the sugar, then the base; units joined by * are phosphorothioate-linked, units joined directly phosphodiester-linked; [ ] holds rarer units or linkages, { } end groups; capitals alone tell only the bases. e = 2'-O-(2-methoxyethyl) (MOE); [5mC] = 5-methylcytosine; d = 2'-deoxy (DNA)
Lab book: enter the figure in %, no units written.

{"Substance": "771816 (antisense eA*eT*e[5mC]*e[5mC]*eA*dA*d[5mC]*dT*dA*d[5mC]*dT*d[5mC]*dA*dG*dA*eG*eG*e[5mC]*eT*eG) [compound 771816]", "Quantity Name": "% Inhibition of SMAD7 mRNA", "Recorded Result": 28}
{"Substance": "771896 (antisense eG*eG*eG*e[5mC]*e[5mC]*d[5mC]*d[5mC]*d[5mC]*dT*dT*d[5mC]*dT*dG*d[5mC]*d[5mC]*eT*eT*e[5mC]*eA*eT) [compound 771896]", "Quantity Name": "% Inhibition of SMAD7 mRNA", "Recorded Result": 17}
{"Substance": "771768 (antisense eG*eT*eA*eT*eG*d[5mC]*dT*dT*dG*dG*dG*dA*dT*d[5mC]*dT*eG*eT*e[5mC]*eT*eT) [compound 771768]", "Quantity Name": "% Inhibition of SMAD7 mRNA", "Recorded Result": 24}
{"Substance": "771355 (antisense e[5mC]*eA*eG*eT*eT*d[5mC]*dG*dG*d[5mC]*d[5mC]*dT*dT*d[5mC]*d[5mC]*dA*eT*e[5mC]*e[5mC]*eA*eA) [compound 771355]", "Quantity Name": "% Inhibition of SMAD7 mRNA", "Recorded Result": 13}
{"Substance": "771848 (antisense e[5mC]*e[5mC]*eA*e[5mC]*eA*d[5mC]*dA*dA*d[5mC]*d[5mC]*dA*dA*dA*dG*d[5mC]*eA*eG*eA*eA*eG) [compound 771848]", "Quantity Name": "% Inhibition of SMAD7 mRNA", "Recorded Result": 47}
{"Substance": "771544 (antisense eA*eA*eA*eA*e[5mC]*d[5mC]*d[5mC]*d[5mC]*d[5mC]*dA*dA*d[5mC]*dA*dA*dT*eT*e[5mC]*eT*eT*eT) [compound 771544]", "Quantity Name": "% Inhibition of SMAD7 mRNA", "Recorded Result": 16}
{"Substance": "771616 (antisense eT*eG*e[5mC]*eT*eG*dA*dG*d[5mC]*dT*dG*dG*dT*dT*dT*dT*e[5mC]*eT*eA*eA*eG) [compound 771616]", "Quantity Name": "% Inhibition of SMAD7 mRNA", "Recorded Result": 33}
{"Substance": "771824 (antisense eT*eT*e[5mC]*eT*eA*d[5mC]*dT*dA*dG*dA*dA*dA*dA*dA*dA*eA*eT*eT*eA*eG) [compound 771824]", "Quantity Name": "% Inhibition of SMAD7 mRNA", "Recorded Result": 3}

(Q) So what does the record say about % Inhibition of SMAD7 mRNA for 771560 (antisense e[5mC]*eT*eG*eA*e[5mC]*dA*dA*dG*dT*dG*dA*dA*dA*dT*dG*eA*eT*eG*eA*e[5mC]) [compound 771560] ?
(A) 0

(Q) Request the reported % Inhibition of SMAD7 mRNA associated with 771704 (antisense e[5mC]*eA*eG*eG*eA*dG*dG*dG*dT*dA*dT*dG*d[5mC]*dA*d[5mC]*eA*e[5mC]*eT*e[5mC]*eT) [compound 771704]
(A) 55

(Q) % Inhibition of SMAD7 mRNA for 771505 (antisense e[5mC]*eT*e[5mC]*eA*eG*d[5mC]*dT*d[5mC]*dA*d[5mC]*dG*d[5mC]*dT*d[5mC]*dT*eG*eT*e[5mC]*e[5mC]*e[5mC]) [compound 771505] ?
(A) 29

(Q) // lookup % Inhibition of SMAD7 mRNA for 771728 (antisense eA*eA*e[5mC]*eT*eT*dT*dT*d[5mC]*dT*d[5mC]*d[5mC]*d[5mC]*d[5mC]*d[5mC]*dT*eT*eG*eG*eA*eA) [compound 771728]
(A) 7

(Q) Recorded % Inhibition of SMAD7 mRNA of 771792 (antisense eA*eG*e[5mC]*eA*e[5mC]*dA*d[5mC]*d[5mC]*d[5mC]*d[5mC]*dA*d[5mC]*d[5mC]*d[5mC]*d[5mC]*e[5mC]*eA*e[5mC]*e[5mC]*eT) [compound 771792] , please.
(A) 33
